Every entry's value here was drawn from paper PMC7753147.

Consider the following sequences and their measured gephE Binding Intensity [norm.] readings.
# System: gephE
# protocol-description: µSPOT peptide microarray binding assay with recombinant gephE
# measurement-context: overlapping GlyR β peptide library on µSPOT array; 50 nM gephE; anti-gephyrin 3B11/HRP chemiluminescence; normalized to most prominent spot; n = 2 array-internal duplicate
Please state the figure in norm.; there is no need to write the unit.

AEQADGKGGNAAKKNTVNGT [Glycine receptor subunit beta_008, GlyR β residues 370-389] : 0.023

[in] // query gephE Binding Intensity [norm.] value for entry VMLNNPKRVEAEKARIAKAE [Glycine receptor subunit beta_002, GlyR β residues 352-371]
[out] 0.010

[in] // query gephE Binding Intensity [norm.] value for entry LRSNDFSIVGSLPRDFELSN [Glycine receptor subunit beta_023, GlyR β residues 415-434]
[out] 1.000

[in] // query gephE Binding Intensity [norm.] value for entry GTGTPVHISTLQVGETRCKK [Glycine receptor subunit beta_014, GlyR β residues 388-407]
[out] 0.044

[in] // query gephE Binding Intensity [norm.] value for entry KPPPAKPVIPTAAKRIDL [Glycine receptor subunit beta_037, GlyR β residues 457-474]
[out] 0.037

[in] // query gephE Binding Intensity [norm.] value for entry FELSNYDCYGKPIEVNNGLG [Glycine receptor subunit beta_028, GlyR β residues 430-449]
[out] 0.112

[in] // query gephE Binding Intensity [norm.] value for entry TRCKKVCTSKSDLRSNDFSI [Glycine receptor subunit beta_019, GlyR β residues 403-422]
[out] 0.033

* * *

Consider the following sequences and their measured Fl-geph Binding Intensity [norm.] readings.
# Test system: FL-geph
# protocol-description: µSPOT peptide microarray binding assay with full-length geph
# measurement-context: µSPOT peptide microarray, GlyRβ full positional scan, intensity normalised to wild-type sequence DLRSNDFSIVGSLPR (=1)
Please state the figure in norm.; there is no need to write the unit.

[in] // query Fl-geph Binding Intensity [norm.] value for entry DLRGNDFSIVGSLPR [GlyRβ_Full_Positional_Scan_062]
[out] 0.88

[in] // query Fl-geph Binding Intensity [norm.] value for entry DLRSMDFSIVGSLPR [GlyRβ_Full_Positional_Scan_098]
[out] 0.85

[in] // query Fl-geph Binding Intensity [norm.] value for entry DLRSNDFQIVGSLPR [GlyRβ_Full_Positional_Scan_160, GlyR β 414-428 variant S421Q]
[out] 0.9

[in] // query Fl-geph Binding Intensity [norm.] value for entry DLRSPDFSIVGSLPR [GlyRβ_Full_Positional_Scan_085]
[out] 0.85

[in] // query Fl-geph Binding Intensity [norm.] value for entry DLRSNDASIVGSLPR [GlyRβ_Full_Positional_Scan_121, GlyR β 414-428 variant F420A]
[out] 0.53

[in] // query Fl-geph Binding Intensity [norm.] value for entry MLRSNDFSIVGSLPR [GlyRβ_Full_Positional_Scan_018]
[out] 1.04

[in] // query Fl-geph Binding Intensity [norm.] value for entry DLRSNDMSIVGSLPR [GlyRβ_Full_Positional_Scan_138, GlyR β 414-428 variant F420M]
[out] 0.51

[in] // query Fl-geph Binding Intensity [norm.] value for entry DLRSNDPSIVGSLPR [GlyRβ_Full_Positional_Scan_125, GlyR β 414-428 variant F420P]
[out] 0.65

* * *

# Tested on: gephE
# protocol-description: µSPOT peptide microarray binding assay with recombinant gephE
# measurement-context: µSPOT peptide microarray, GlyRβ full positional scan, recombinant gephE; intensity normalised to wild-type sequence DLRSNDFSIVGSLPR (=1)
Cut-off 0.8 norm. on gephE Binding Intensity [norm.]: below means Condition met, at or above means Condition not met.

Past entries and their recorded results:
DLRSNDRSIVGSLPR [GlyRβ_Full_Positional_Scan_132, GlyR β 414-428 variant F420R] : Condition met
DLRSKDFSIVGSLPR [GlyRβ_Full_Positional_Scan_094] : Condition not met
ELRSNDFSIVGSLPR [GlyRβ_Full_Positional_Scan_011] : Condition not met
DLRLNDFSIVGSLPR [GlyRβ_Full_Positional_Scan_064] : Condition not met
DLRSNDFSQVGSLPR [GlyRβ_Full_Positional_Scan_180, GlyR β 414-428 variant I422Q] : Condition met
DLRSNDFSIVGSLPR [GlyRβ_Full_Positional_Scan_099] : Condition not met

[in] Confirm or reject: gephE Binding Intensity [norm.] of DLRSNDFSGVGSLPR [GlyRβ_Full_Positional_Scan_162, GlyR β 414-428 variant I422G] lies strictly below 0.8 norm.
[out] Condition met

* * *

# Tested on: gephE
# protocol-description: µSPOT peptide microarray binding assay with recombinant gephE
# measurement-context: overlapping GlyR β peptide library on µSPOT array; 50 nM gephE; anti-gephyrin 3B11/HRP chemiluminescence; normalized to most prominent spot; n = 2 array-internal duplicate
reported-endpoint: gephE Binding Intensity [norm.] (norm.)
Please state the figure in norm.; there is no need to write the unit.

KKVCTSKSDLRSNDFSIVGS [Glycine receptor subunit beta_020, GlyR β residues 406-425] : 0.393
EAEKARIAKAEQADGKGGNA [Glycine receptor subunit beta_005, GlyR β residues 361-380] : 0.024
TPVHISTLQVGETRCKKVCT [Glycine receptor subunit beta_015, GlyR β residues 391-410] : 0.013

[in] // query gephE Binding Intensity [norm.] value for entry TVNGTGTPVHISTLQVGETR [Glycine receptor subunit beta_013]
[out] 0.008

[in] // query gephE Binding Intensity [norm.] value for entry NAAKKNTVNGTGTPVHISTL [Glycine receptor subunit beta_011, GlyR β residues 379-398]
[out] 0.011

[in] // query gephE Binding Intensity [norm.] value for entry HISTLQVGETRCKKVCTSKS [Glycine receptor subunit beta_016, GlyR β residues 394-413]
[out] 0.042

[in] // query gephE Binding Intensity [norm.] value for entry GSLPRDFELSNYDCYGKPIE [Glycine receptor subunit beta_026, GlyR β residues 424-443]
[out] 0.132

[in] // query gephE Binding Intensity [norm.] value for entry KSDLRSNDFSIVGSLPRDFE [Glycine receptor subunit beta_022, GlyR β residues 412-431]
[out] 0.972

[in] // query gephE Binding Intensity [norm.] value for entry SNYDCYGKPIEVNNGLGKPQ [Glycine receptor subunit beta_029, GlyR β residues 433-452]
[out] 0.216

[in] // query gephE Binding Intensity [norm.] value for entry IEVNNGLGKPQAKNKKPPPA [Glycine receptor subunit beta_032, GlyR β residues 442-461]
[out] 0.009

[in] // query gephE Binding Intensity [norm.] value for entry NNPKRVEAEKARIAKAEQAD [Glycine receptor subunit beta_003, GlyR β residues 355-374]
[out] 0.023

[in] // query gephE Binding Intensity [norm.] value for entry KKNTVNGTGTPVHISTLQVG [Glycine receptor subunit beta_012]
[out] 0.023

[in] // query gephE Binding Intensity [norm.] value for entry DCYGKPIEVNNGLGKPQAKN [Glycine receptor subunit beta_030, GlyR β residues 436-455]
[out] 0.049

[in] // query gephE Binding Intensity [norm.] value for entry KRVEAEKARIAKAEQADGKG [Glycine receptor subunit beta_004]
[out] 0.052

* * *

Consider the following sequences and their measured Native geph Binding Intensity [norm.] readings.
# Test system: native geph
# protocol-description: µSPOT peptide microarray binding assay with native geph from mouse brain lysate
# measurement-context: overlapping GABAAR α3 peptide library on µSPOT array; 6% mouse brain lysate; normalized to most prominent spot; n = 2 array-internal duplicate
Please state the figure in norm.; there is no need to write the unit.

KATYVQDSPAETKTYNSVSK [GABAAR α3 residues 435-454, µSpot library] : 0.059
KKVPEALEMKKKTPAAPTKK [GABAAR α3 residues 372-391, µSpot library] : 0.081
TAIASPKATYVQDSPAETKT [GABAAR α3 residues 429-448, µSpot library] : 0.060

[in] Give Native geph Binding Intensity [norm.] (native geph) of the following sequence: APTKKNTTFNIVGTTYPINL [GABAAR α3 residues 387-406, µSpot library]
[out] 0.767

[in] Give Native geph Binding Intensity [norm.] (native geph) of the following sequence: SWAWEGKKVPEALEMKKKTP
[out] 0.118

[in] Give Native geph Binding Intensity [norm.] (native geph) of the following sequence: NYFTKRSWAWEGKKVPEALE [GABAAR α3 residues 360-379, µSpot library]
[out] 0.048

[in] Give Native geph Binding Intensity [norm.] (native geph) of the following sequence: STPTAIASPKATYVQDSPAE [GABAAR α3 residues 426-445, µSpot library]
[out] 0.067

[in] Give Native geph Binding Intensity [norm.] (native geph) of the following sequence: TTFNIVGTTYPINLAKDTEF [GABAAR α3 residues 393-412, µSpot library]
[out] 0.538

[in] Give Native geph Binding Intensity [norm.] (native geph) of the following sequence: YPINLAKDTEFSTISKSAAA [GABAAR α3 residues 402-421, µSpot library]
[out] 0.114
